Reference for the values: patent US11807625B2

EXPERIMENT_DESCRIPTION: PK of compound of Formula (Ia) after single subcutaneous dose of solution formulations in beagle dogs
Type: in vivo
ASSAY_SETUP: male, beagle, dog, plasma, sc, 12 mg/kg, 96.0 h; mean, n = 3 dogs; SC 12 mg/kg; solution T, 400 mg/mL
OUTCOME_MEASURE: concentration at 96 h
Report as: number unit

q: Return concentration at 96 h (reported value) for this molecule: "CC(C)(C#Cc1ccc(-c2ccc(Cl)c3c(NS(C)(=O)=O)nn(CC(F)(F)F)c23)c([C@H](Cc2cc(F)cc(F)c2)NC(=O)Cn2nc(C(F)(F)F)c3c2C(F)(F)[C@@H]2C[C@H]32)n1)S(C)(=O)=O"
a: 232 nM
